Biological target: mouse FAP (Mus musculus, UniProt P97321)
Construct: biotinylated His, Avi tag, mouse FAP (26-761, FAP-M82Q5); His; Avi tag (biotinylated); purchased AcroBiosystems FAP-M82Q5
Sequence (P97321 26-761): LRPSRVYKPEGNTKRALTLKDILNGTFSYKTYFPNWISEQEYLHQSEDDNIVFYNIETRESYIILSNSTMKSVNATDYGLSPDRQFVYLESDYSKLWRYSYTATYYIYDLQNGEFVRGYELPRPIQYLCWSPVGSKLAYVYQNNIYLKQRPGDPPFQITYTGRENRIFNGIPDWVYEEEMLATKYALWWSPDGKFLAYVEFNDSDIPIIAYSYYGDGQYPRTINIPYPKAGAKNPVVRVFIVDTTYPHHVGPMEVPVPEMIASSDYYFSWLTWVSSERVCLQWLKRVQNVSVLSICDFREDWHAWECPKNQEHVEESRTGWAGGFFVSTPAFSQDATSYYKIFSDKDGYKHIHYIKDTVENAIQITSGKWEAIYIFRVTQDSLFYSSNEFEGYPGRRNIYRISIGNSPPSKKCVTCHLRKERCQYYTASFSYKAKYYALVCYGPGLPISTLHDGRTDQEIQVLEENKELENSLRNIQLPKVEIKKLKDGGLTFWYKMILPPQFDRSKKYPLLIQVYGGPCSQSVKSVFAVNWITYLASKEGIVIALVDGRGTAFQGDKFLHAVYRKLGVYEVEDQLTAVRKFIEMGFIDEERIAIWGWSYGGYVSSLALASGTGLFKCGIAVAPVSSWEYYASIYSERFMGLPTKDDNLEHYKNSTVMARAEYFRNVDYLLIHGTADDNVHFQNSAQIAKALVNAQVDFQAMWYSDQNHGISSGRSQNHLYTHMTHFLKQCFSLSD
Test: Surface plasmon resonance (SPR) for peptide affinity, mouse FAP
Type: binding
Structures can show the parent of a compound that is named as a salt. Non-standard residues stand in square brackets, D forms with d. Residues, ends and D or L forms follow the SMILES beside them. Trp(6-OH) = N[C@@H](Cc1c[nH]c2cc(O)ccc12)C(=O)O; NMeF = CN[C@@H](Cc1ccccc1)C(=O)O; Ahp(2) = CCCCC[C@H](N)C(=O)O
MEASURE: pKd
To interpret pKd, take it as minus log10 of a concentration measured in moles per litre.

Field: pKd (mouse FAP (Mus musculus, UniProt P97321)). Entry: CCCCC[C@@H]1NC(=O)[C@H](Cc2ccc(O)cc2)NC(=O)[C@H](Cc2ccccc2)N(C)C(=O)CNC(=O)[C@H](CCCCN)NC(=O)[C@H]2CCCN2C(=O)[C@H](CC(=O)O)NC(=O)[C@H](Cc2ccc(O)cc2)NC(=O)CNC(=O)[C@H](Cc2c[nH]c3cc(O)ccc23)NC1=O [Example A24, TFA salt] (cyclo([Ahp(2)][Trp(6-OH)]GYD[dP]KG[NMeF]Y))
9.07

----------
Molecular target: mouse FAP (Mus musculus)
Sequence (P97321 26-761): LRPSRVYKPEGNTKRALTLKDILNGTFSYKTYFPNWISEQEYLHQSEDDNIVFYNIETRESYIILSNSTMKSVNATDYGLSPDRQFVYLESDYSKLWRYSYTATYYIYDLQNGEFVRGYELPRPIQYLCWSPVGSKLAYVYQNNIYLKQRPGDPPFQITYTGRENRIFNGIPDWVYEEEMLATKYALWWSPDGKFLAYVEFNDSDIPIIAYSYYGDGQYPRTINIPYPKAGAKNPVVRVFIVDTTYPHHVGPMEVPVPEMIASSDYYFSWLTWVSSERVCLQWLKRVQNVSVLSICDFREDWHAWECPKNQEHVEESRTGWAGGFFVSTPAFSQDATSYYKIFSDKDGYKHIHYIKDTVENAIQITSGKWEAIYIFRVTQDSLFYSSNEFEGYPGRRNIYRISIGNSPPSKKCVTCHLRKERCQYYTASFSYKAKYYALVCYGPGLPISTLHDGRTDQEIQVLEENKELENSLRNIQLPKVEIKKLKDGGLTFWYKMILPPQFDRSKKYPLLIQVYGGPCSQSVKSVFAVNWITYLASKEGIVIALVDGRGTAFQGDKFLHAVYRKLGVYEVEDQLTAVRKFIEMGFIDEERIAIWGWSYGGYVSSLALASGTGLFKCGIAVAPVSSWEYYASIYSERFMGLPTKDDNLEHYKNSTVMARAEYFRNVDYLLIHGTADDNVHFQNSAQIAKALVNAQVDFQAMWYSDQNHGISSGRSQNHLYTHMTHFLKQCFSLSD
Where a name gives a salt, the structure may show the parent alone. Starred links: 1 amine or outer side, 2 acyl side, 3 side chain; linkers in the order of their positions; H or OH if unused. Non-standard residues stand in square brackets, D forms with d. Residues, ends and D or L forms follow the SMILES beside them. Groups on a side chain read outwards from the residue. *: point of attachment. DOTA = O=C(O)CN1CCN(CC(=O)O)CCN(CC(=O)*)CCN(CC(=O)O)CC1; Trp(7-Cl) = N[C@@H](Cc1c[nH]c2c(Cl)cccc12)C(=O)O; Trp(6-OH) = N[C@@H](Cc1c[nH]c2cc(O)ccc12)C(=O)O; Phe(4-CH2NH2) = NCc1ccc(C[C@H](N)C(=O)O)cc1; Piperazinyl(4-CH2COOH) = O=C(O)CN1CCN(*)CC1; 3Pal(6-NH2) = Nc1ccc(C[C@H](N)C(=O)O)cn1; AEF = NCCOc1ccc(C[C@H](N)C(=O)O)cc1; X10 = O=C([C@H]1COCCN1[*:1])[*:2]; NMeF = CN[C@@H](Cc1ccccc1)C(=O)O; Aoc(2) = CCCCCC[C@H](N)C(=O)O; Ahp(2) = CCCCC[C@H](N)C(=O)O; AEEA = NCCOCCOCC(=O)O; CO = O=C([*:1])[*:2]
Listing: pIC50 of selected compounds
Reminder that pIC50 is minus the log10 of a molar concentration.

Below are worked cases with known answers.
COMPOUND	pIC50
CCCCC[C@@H]1NC(=O)[C@H](Cc2ccc(O)cc2)NC(=O)[C@H](Cc2ccccc2)N(C)C(=O)CNC(=O)CNC(=O)[C@H]2COCCN2C(=O)[C@H](CC(=O)O)NC(=O)[C@H](Cc2ccc(O)cc2)NC(=O)CNC(=O)[C@H](Cc2c[nH]c3ccccc23)NC1=O [Example A63] (cyclo([Ahp(2)]WGYD[X10]GG[NMeF]Y))	7.26
CCCCCC[C@@H]1NC(=O)[C@H](Cc2ccc(CNC(=O)COCCOCCN)cc2)NC(=O)[C@H](Cc2ccccc2)N(C)C(=O)CNC(=O)CNC(=O)[C@H]2CCCN2C(=O)[C@H](CC(=O)O)NC(=O)[C@H](CCCCNC(=O)N2CCN(CC(=O)O)CC2)NC(=O)CNC(=O)[C@H](Cc2c[nH]c3ccccc23)NC1=O [Example A1, TFA salt] (cyclo([Aoc(2)]WGK([CO-Piperazinyl(4-CH2COOH)])D[dP]GG[NMeF][Phe(4-CH2NH2)](AEEA)))	10.55
CCCCC[C@@H]1NC(=O)[C@H](Cc2ccc(O)cc2)NC(=O)[C@H](Cc2ccccc2)N(C)C(=O)CNC(=O)[C@H](CCCCN)NC(=O)[C@H]2CCCN2C(=O)[C@H](CC(=O)O)NC(=O)[C@H](Cc2ccc(O)cc2)NC(=O)CNC(=O)[C@H](Cc2c[nH]c3cc(O)ccc23)NC1=O [Example A24, TFA salt] (cyclo([Ahp(2)][Trp(6-OH)]GYD[dP]KG[NMeF]Y))	8.89
CCCCC[C@@H]1NC(=O)[C@H](Cc2ccc(OCCNC(=O)CN3CCN(CC(=O)O)CCN(CC(=O)O)CCN(CC(=O)O)CC3)cc2)NC(=O)[C@H](Cc2ccccc2)N(C)C(=O)CNC(=O)CNC(=O)[C@H]2CCCN2C(=O)[C@H](CC(=O)O)NC(=O)[C@H](Cc2ccc(N)nc2)NC(=O)CNC(=O)[C@H](Cc2c[nH]c3ccccc23)NC1=O [Example B24, TFA salt] (cyclo([AEF](DOTA)[Ahp(2)]WG[3Pal(6-NH2)]D[dP]GG[NMeF]))	9.97
CCCCCC[C@@H]1NC(=O)[C@H](Cc2ccc(O)cc2)NC(=O)[C@H](Cc2ccccc2)N(C)C(=O)CNC(=O)[C@H](CCCCN)NC(=O)[C@H]2CCCN2C(=O)[C@H](CC(=O)O)NC(=O)[C@H](Cc2ccc(O)cc2)NC(=O)CNC(=O)[C@H](Cc2c[nH]c3ccccc23)NC1=O [Example A31, TFA salt] (cyclo([Aoc(2)]WGYD[dP]KG[NMeF]Y))	9.80

Find the recorded pIC50 belonging to CCCCC[C@@H]1NC(=O)[C@H](Cc2ccc(O)cc2)NC(=O)[C@H](Cc2ccccc2)N(C)C(=O)CNC(=O)[C@@H]2CCCN2C(=O)[C@H]2CCCN2C(=O)[C@H](CC(=O)O)NC(=O)[C@H](Cc2ccc(O)cc2)NC(=O)CNC(=O)[C@H](Cc2c[nH]c3ccccc23)NC1=O [Example A51] (cyclo(G[NMeF]Y[Ahp(2)]WGYD[dP]P)) and report it.
9.40

Also CCCCC[C@@H]1NC(=O)[C@H](Cc2ccc(O)cc2)NC(=O)[C@H](Cc2ccccc2)N(C)C(=O)[C@H](CCC(=O)O)NC(=O)[C@H](CCCCN)NC(=O)[C@H]2CCCN2C(=O)[C@H](CC(=O)O)NC(=O)[C@H](Cc2ccc(O)cc2)NC(=O)CNC(=O)[C@H](Cc2c[nH]c3ccccc23)NC1=O [Example A21, TFA salt] (cyclo([Ahp(2)]WGYD[dP]KE[NMeF]Y)) ?
7.85

How about CCCCC[C@@H]1NC(=O)[C@H](Cc2ccc(O)cc2)NC(=O)[C@H](Cc2ccccc2)N(C)C(=O)CNC(=O)[C@H](CC(=O)O)NC(=O)[C@H]2CCCN2C(=O)[C@H](CC(=O)O)NC(=O)[C@H](Cc2ccc(O)cc2)NC(=O)CNC(=O)[C@H](Cc2c[nH]c3ccccc23)NC1=O [Example A18] (cyclo([Ahp(2)]WGYD[dP]DG[NMeF]Y)) ?
9.15

What about CCCCC[C@@H]1NC(=O)[C@H](Cc2ccc(O)cc2)NC(=O)[C@H](Cc2ccccc2)N(C)C(=O)CNC(=O)[C@@H](CO)NC(=O)[C@H]2CCCN2C(=O)[C@H](CC(=O)O)NC(=O)[C@H](Cc2ccc(O)cc2)NC(=O)CNC(=O)[C@H](Cc2c[nH]c3ccccc23)NC1=O [Example A69] (cyclo([Ahp(2)]WGYD[dP][dS]G[NMeF]Y)) ?
9.33

Follow-up entry: CCCCC[C@@H]1NC(=O)[C@H](Cc2ccc(O)cc2)NC(=O)[C@H](Cc2ccccc2)N(C)C(=O)CNC(=O)[C@H](CCCCN)NC(=O)[C@H]2CCCN2C(=O)[C@H](CC(=O)O)NC(=O)[C@H](Cc2ccc(O)cc2)NC(=O)CNC(=O)[C@H](Cc2c[nH]c3c(Cl)cccc23)NC1=O [Example A25, TFA salt] (cyclo([Ahp(2)][Trp(7-Cl)]GYD[dP]KG[NMeF]Y))
9.07

Now try CCCCC[C@@H]1NC(=O)[C@H](Cc2ccc(O)cc2)NC(=O)[C@H](Cc2ccccc2)N(C)C(=O)CNC(=O)[C@H](CO)NC(=O)[C@H]2CCCN2C(=O)[C@H](CC(=O)O)NC(=O)[C@H](Cc2ccc(O)cc2)NC(=O)CNC(=O)[C@H](Cc2c[nH]c3ccccc23)NC1=O [Example A19] (cyclo([Ahp(2)]WGYD[dP]SG[NMeF]Y)) .
9.18
